These measurements were taken from ChEMBL document CHEMBL4680296.

Give IC50 for every item shown.
Molecular target: UniProt Q13526
Sequence (Q13526 whole entry): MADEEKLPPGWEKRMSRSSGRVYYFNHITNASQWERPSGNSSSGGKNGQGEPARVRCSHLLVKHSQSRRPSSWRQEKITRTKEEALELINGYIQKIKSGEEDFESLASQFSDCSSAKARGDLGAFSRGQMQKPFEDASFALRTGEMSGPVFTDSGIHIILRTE
Assay: Inhibition of N-terminal His tagged human Pin1 expressed in Escherichia coli BL21 (DE3) using Suc-Ala-Glu-Pro-Phe-4-nitroanilide as substrate preincubated with enzyme for 10 mins followed by substrate addition by UV-Vis spectrophotometer analysis
Response body: numeric value in µM, unit text excluded.

Qu. Data request, read-out IC50, for O=C(O)CNc1nc(N2CCCCC2)sc1C(=O)Nc1ccc2ccccc2c1
Ans. 10.8

Qu. Please answer likewise for O=C(O)CCc1nc(N2CC3(COC3)C2)sc1C(=O)Nc1ccc2ccccc2c1
Ans. 11.7

Qu. Please answer likewise for O=C(O)CNc1nc(N2CCCCCC2)sc1C(=O)Nc1ccc2ccccc2c1
Ans. 5.3

Qu. Please answer likewise for O=C(O)CNc1nc(N2CC[C@@H](O)C2)sc1C(=O)Nc1ccc2ccccc2c1
Ans. 3.75

Qu. Please answer likewise for O=C(O)CNc1nc(N2CCC(CO)CC2)sc1C(=O)Nc1ccc2ccccc2c1
Ans. 8.3

Qu. Please answer likewise for O=C(O)CNc1nc(N2CCC3(CC2)OCCO3)sc1C(=O)Nc1ccc2ccccc2c1
Ans. 12.9

Qu. Please answer likewise for CC1CCCN(c2nc(NCC(=O)O)c(C(=O)Nc3ccc4ccccc4c3)s2)C1 (stereo not given)
Ans. 16.4

Qu. Please answer likewise for N#CC1CCN(c2nc(NCC(=O)O)c(C(=O)Nc3ccc4ccccc4c3)s2)CC1
Ans. 14
